Each entry below lists one item and its recorded % inhibition of biotinylated nAbs value.
# tgt: T1, EBV gp350 expressed on the surface of stably transfected CHO cells (Epstein-Barr virus, UniProt P03200 1-907)
# T1 construct: also called native gp350; gp350 expressing CHO cells
# T1 sequence: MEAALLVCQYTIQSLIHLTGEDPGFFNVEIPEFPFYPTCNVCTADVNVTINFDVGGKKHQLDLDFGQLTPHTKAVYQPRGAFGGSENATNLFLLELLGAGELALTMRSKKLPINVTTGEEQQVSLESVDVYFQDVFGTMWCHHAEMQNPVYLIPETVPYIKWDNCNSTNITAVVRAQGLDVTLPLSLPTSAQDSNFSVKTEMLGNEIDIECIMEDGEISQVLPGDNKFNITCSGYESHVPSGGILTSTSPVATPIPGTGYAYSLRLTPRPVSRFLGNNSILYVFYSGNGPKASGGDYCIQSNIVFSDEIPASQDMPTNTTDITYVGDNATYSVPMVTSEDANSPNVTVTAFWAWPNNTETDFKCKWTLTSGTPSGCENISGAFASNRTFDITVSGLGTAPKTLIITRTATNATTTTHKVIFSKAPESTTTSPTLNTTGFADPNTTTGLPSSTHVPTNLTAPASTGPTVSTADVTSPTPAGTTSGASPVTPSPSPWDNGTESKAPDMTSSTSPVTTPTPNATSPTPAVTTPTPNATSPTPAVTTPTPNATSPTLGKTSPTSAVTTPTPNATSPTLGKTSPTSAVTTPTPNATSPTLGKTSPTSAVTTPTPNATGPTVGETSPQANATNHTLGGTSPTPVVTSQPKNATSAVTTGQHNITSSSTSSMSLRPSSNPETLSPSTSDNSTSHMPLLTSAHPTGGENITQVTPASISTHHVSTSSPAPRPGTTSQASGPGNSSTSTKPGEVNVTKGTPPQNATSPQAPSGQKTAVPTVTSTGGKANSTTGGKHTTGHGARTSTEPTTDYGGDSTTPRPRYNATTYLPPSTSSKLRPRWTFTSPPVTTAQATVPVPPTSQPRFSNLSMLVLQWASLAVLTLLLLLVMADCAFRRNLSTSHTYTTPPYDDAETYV
# method.description: cross-competition on gp350-CHO cells (flow), unlabeled 500 µg/ml; competitor: biotinylated HB17
Enter your answer as a number in %; do not include the unit.

Example entries and their recorded answers appear below.
HB17 (antibody, V domains shown) VH: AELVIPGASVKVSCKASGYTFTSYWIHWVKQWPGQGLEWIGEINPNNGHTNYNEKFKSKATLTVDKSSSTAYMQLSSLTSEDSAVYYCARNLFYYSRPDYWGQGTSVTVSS VL: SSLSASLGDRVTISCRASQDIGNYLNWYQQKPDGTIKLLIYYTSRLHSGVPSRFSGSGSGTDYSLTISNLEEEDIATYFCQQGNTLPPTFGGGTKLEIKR
86
HB11 (antibody, V domains shown) VH: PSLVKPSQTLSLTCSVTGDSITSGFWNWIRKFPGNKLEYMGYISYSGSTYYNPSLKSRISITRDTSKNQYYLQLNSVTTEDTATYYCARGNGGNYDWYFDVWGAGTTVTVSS VL: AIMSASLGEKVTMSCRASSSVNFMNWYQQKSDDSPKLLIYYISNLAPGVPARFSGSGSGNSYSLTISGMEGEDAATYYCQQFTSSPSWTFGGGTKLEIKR
17
murine 72A1 (m72A1), anti-EBV gp350 neutralizing antibody from hybridoma HB168 (antibody, V domains shown, also called nAb-72A1; mouse 72A1) VH: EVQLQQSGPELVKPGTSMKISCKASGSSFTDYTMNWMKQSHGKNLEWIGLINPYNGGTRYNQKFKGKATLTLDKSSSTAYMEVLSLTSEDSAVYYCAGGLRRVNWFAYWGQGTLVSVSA VL: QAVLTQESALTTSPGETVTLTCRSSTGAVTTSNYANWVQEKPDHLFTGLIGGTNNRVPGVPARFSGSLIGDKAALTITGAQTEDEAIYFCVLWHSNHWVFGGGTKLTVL
37
HB20 (antibody, V domains shown) VH: ELVKPGASVKLSCKASGYTFTSYWIQWVKQRPGQGLEWIGEINPTNGHTNYNEKFKTKATLTVDKSSSTAYMRLSSLTSEDSAVYYCARNLYYYGRPDYWGQGTSVTVSS VL: SSLSASLGDRVTISCRASQDIGNYLNWYQQKPDGTVKLLIYYTSRLHSGVPSRFSGSGSGTDYSLTISNLEQEDIATYFCQQGNALPPTFGGGTKLEIKR
13
HB1 (antibody, V domains shown) VH: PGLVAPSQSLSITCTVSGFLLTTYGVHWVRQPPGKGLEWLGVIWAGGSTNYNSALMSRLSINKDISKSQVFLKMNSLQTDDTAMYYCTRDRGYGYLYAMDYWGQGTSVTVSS VL: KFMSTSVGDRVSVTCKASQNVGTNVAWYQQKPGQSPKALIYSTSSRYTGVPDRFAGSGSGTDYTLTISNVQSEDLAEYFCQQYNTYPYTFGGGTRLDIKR
16

Let's switch to this binder now.
Reported % inhibition of biotinylated nAbs, binder HB5 (antibody, V domains shown, also called mHB5) VH: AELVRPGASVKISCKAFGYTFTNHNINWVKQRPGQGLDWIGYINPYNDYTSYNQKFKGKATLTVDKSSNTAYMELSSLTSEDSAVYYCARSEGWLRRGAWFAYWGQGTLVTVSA VL: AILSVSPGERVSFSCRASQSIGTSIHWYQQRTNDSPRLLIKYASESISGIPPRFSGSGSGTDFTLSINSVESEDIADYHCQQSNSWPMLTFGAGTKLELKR : ____ 9
